The measured values listed here are drawn from the RNAGym collection of RNA variant scans (doi:10.1126/science.aae0568).

Measured yeast fitness by item
B1: tRNA (parent)
chain: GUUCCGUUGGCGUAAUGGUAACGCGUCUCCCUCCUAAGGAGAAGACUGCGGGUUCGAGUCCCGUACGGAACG

# Variants of: B1
# assay.summary: yeast fitness relative to wild type (ratio to wild type); higher = fitter; tRNA-Arg(CCU), competitive growth, 37 C, YPD
Variants at the floor of the assay were thinned out.
observed.property: yeast fitness

variant.label: U3A U16C A20C
operator.symbol: ≤
measured.value: 0.5
//
variant.label: U2A C11U G17A U64G
operator.symbol: ≤
measured.value: 0.5
//
variant.label: C4A G17C A20C A21U C27U C33G G63A G67A
operator.symbol: ≤
measured.value: 0.5
//
variant.label: G23A C31G
operator.symbol: =
measured.value: 0.811
//
variant.label: A14G A40U A65C
operator.symbol: =
measured.value: 0.533
//
variant.label: G17C C33G A70G
operator.symbol: ≤
measured.value: 0.5
//
variant.label: A45U G56A A69C
operator.symbol: =
measured.value: 0.766
//
variant.label: C5G U13C C62U
operator.symbol: =
measured.value: 0.602
//
variant.label: U2A C30A
operator.symbol: =
measured.value: 0.819
//
variant.label: G9A U26A G56A G67A
operator.symbol: ≤
measured.value: 0.5
//
variant.label: C5G A21G U32C A69C
operator.symbol: ≤
measured.value: 0.5
